Listed next: entries and their corresponding koff.
Target: T1, Link_TSG6 (recombinant Link module from human TSG-6) (human, UniProt P98066 36-133)
T1 construct: Link module of human TSG-6 (TNF-stimulated gene/protein 6); residues numbered as in the pre-protein; also called TSG-6 Link module
T1 sequence (P98066 36-133): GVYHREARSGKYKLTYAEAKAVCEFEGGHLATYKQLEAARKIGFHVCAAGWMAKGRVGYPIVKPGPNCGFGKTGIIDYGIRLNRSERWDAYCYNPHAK
Test: SPR; Link_TSG6 amine-coupled to a C1 chip (800–1000 RU), chemokine as analyte; BIAcore 3000; 10 mM HEPES, 150 mM NaCl, 0.05% Tween 20, pH 7.4; 40 μl/min; 1:1 Langmuir model; apparent affinities
Details: both partners purified
Numeric answer only, unit s⁻¹ assumed.

{"columns": ["binder", "koff [s⁻¹]"],
 "data": [
  ["CXCL11 (ligand, UniProt O14625 22-94, looked up, chemokine CXCL11; CXCL11 is not in the methods' list of chemokines made in E. coli) FPMFKRGRCLCIGPGVKAVKVADIEKASIMYPSNNCDKIEVIITLKENKGQRCLNPKSKQARLIIKKVERKNF", 0.0013],
  ["CCL21 (ligand, UniProt O00585 24-134, looked up, chemokine CCL21; source: E. coli, purified) SDGGAQDCCLKYSQRKIPAKVVRSYRKQEPSLGCSIPAILFLPRKRSQAELCADPKELWVQQLMQHLDKTPSPQKPAQGCRKDRGASKTGKKGKGSKGCKRTERSQTPKGP", 0.0034],
  ["CCL19 (ligand, UniProt Q99731 22-98, looked up, chemokine CCL19; source: E. coli, purified) GTNDAEDCCLSVTQKPIPGYIVRNFHYLLIKDGCRVPAVVFTTLRGRQLCAPPDQPWVERIIQRLQRTSAKMKRRSS", 0.0028],
  ["CCL27 K25A (ligand, UniProt Q9Y4X3 25-112, looked up, chemokine CCL27 with K25A; also called CCL27 K25A mutant; source: E. coli, purified) FLLPPSTACCTQLYRKPLSDKLLRAVIQVELQEADGDCHLQAFVLHLAQRSICIHPQNPSLSQWFEHQERKLHGTLPKLNFGMLRKMG", 0.0061]
]}

For the next question, use this binder.
input: Name the recorded koff of the binder listed here: CCL27 (ligand, UniProt Q9Y4X3 25-112, looked up, chemokine CCL27; source: E. coli, purified) FLLPPSTACCTQLYRKPLSDKLLRKVIQVELQEADGDCHLQAFVLHLAQRSICIHPQNPSLSQWFEHQERKLHGTLPKLNFGMLRKMG
output: 0.0023
